Just for reference, paper PMC7321161 is where these values come from.

biological target: human μ-opioid receptor β-arrestin-2 (Homo sapiens, UniProt P35372); construct: enzyme fragment for EFC (β-galactosidase ProLink fragment, by own knowledge of the PathHunter system); test: cell-based
Sequence (P35372 whole entry, the tested form may be a part): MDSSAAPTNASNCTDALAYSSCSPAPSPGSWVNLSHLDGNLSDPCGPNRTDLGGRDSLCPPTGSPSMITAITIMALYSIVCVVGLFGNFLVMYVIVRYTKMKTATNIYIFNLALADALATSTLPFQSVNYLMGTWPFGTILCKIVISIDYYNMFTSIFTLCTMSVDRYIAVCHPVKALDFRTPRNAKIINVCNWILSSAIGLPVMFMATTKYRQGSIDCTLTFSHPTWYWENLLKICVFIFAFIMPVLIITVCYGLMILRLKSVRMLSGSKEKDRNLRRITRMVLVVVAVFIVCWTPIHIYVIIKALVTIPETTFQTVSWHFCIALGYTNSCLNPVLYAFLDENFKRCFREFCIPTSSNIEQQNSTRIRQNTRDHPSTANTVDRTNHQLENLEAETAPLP
pEC50 values, listed per item
Scale note: pEC50 = -log10(concentration in M).

Before answering, review these 3 worked examples.
INSERT INTO results (compound, measurement) VALUES
  ('Cc1ccc(CCN2CC[C@]34c5c6ccc(O)c5O[C@H]3C(=O)CCC4C2C6)cc1 (some centres unmarked) [Compound 2c]', 8.25),
  ('N#CCN1CC[C@]23c4c5ccc(O)c4O[C@H]2C(=O)CCC3C1C5 (some centres unmarked) [Compound 1a]', 6.37),
  ('O=C1CCC2C3Cc4ccc(O)c5c4[C@@]2(CCN3CCc2c(Cl)cccc2Cl)[C@H]1O5 (some centres unmarked) [Compound 2k]', 7.88);

Please respond with reported pEC50 (system human μ-opioid receptor β-arrestin-2 (Homo sapiens, UniProt P35372)) for O=C1CCC2C3Cc4ccc(O)c5c4C2(CCN3CCc2ccccc2)C1O5 (centres unmarked) [Compound S11, N-Phenethylnorhydromorphone] .
8.77

====

EC50 values, listed per item
target: human μ-opioid receptor β-arrestin-2 (Homo sapiens, UniProt P35372); construct: enzyme fragment for EFC (β-galactosidase ProLink fragment, by own knowledge of the PathHunter system); host or cells: PathHunter CHO cells; experiment: cell-based
Enter your answer as a number in nM; do not include the unit.

Before answering, review these 3 worked examples.
INSERT INTO results (compound, measurement) VALUES
  ('O=C1CCC2C3Cc4ccc(O)c5c4[C@@]2(CCN3CCc2ccc([N+](=O)[O-])cc2)[C@H]1O5 (stereo partly shown)', 6.38),
  ('O=C1CCC2C3Cc4ccc(O)c5c4[C@@]2(CCN3CC2Cc3ccccc3C2)[C@H]1O5 (stereo partly shown)', 130),
  ('O=C1CCC2C3Cc4ccc(O)c5c4[C@@]2(CCN3CCc2ccc(C(F)(F)F)cc2)[C@H]1O5 (stereo partly shown)', 10.3);

Would you kindly look at the next entry?
Annotate the compound O=C(O)C(=O)O.O=C1CCC2[C@H]3Cc4ccc(O)c5c4[C@@]2(CCN3CCc2ccc(Br)cc2)[C@H]1O5 (stereo partly shown) with its measured EC50.
4.9

====

target: rat DOR (Rattus norvegicus, UniProt P33533); construct: membranes; experiment: Stimulation of [35S]GTPγS binding, C6 glioma cell membranes expressing DOR; conditions: DOR EC50, [35S]GTPγS, C6 cells expressing DOR; mean ± SEM
Sequence (P33533 whole entry): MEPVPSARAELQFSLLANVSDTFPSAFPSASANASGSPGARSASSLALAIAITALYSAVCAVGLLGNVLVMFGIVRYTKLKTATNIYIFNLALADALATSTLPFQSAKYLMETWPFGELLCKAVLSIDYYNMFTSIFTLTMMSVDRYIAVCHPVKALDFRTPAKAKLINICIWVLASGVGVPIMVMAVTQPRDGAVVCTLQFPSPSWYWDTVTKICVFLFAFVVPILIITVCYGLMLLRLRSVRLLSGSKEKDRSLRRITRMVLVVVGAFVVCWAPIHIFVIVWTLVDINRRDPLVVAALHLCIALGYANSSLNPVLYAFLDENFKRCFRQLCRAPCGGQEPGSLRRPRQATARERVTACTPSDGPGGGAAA
value-type: pEC50
Scale note: pEC50 = -log10(concentration in M).

INSERT INTO results (compound, measurement) VALUES
  ('Cc1ccc(CCN2CC[C@]34c5c6ccc(O)c5O[C@H]3C(=O)CCC4C2C6)cc1 (stereo partly shown) [Compound 2c]', 7.64),
  ('O=C1CCC2C3Cc4ccc(O)c5c4[C@@]2(CCN3CCc2ccc([N+](=O)[O-])cc2)[C@H]1O5 (stereo partly shown) [Compound 2a]', 6.64),
  ('O=C1CCC2C3Cc4ccc(O)c5c4[C@@]2(CCN3CCc2ccccc2F)[C@H]1O5 (stereo partly shown) [Compound 2g]', 7.03),
  ('O=C1CCC2C3Cc4ccc(O)c5c4[C@@]2(CCN3CCc2cccc(F)c2)[C@H]1O5 (stereo partly shown) [Compound 2f]', 7.27),
  ('O=C1CCC2C3Cc4ccc(O)c5c4[C@@]2(CCN3CCc2ccc(F)cc2)[C@H]1O5 (stereo partly shown) [Compound 2e]', 7.19),
  ('COc1ccc(CCN2CC[C@]34c5c6ccc(O)c5O[C@H]3C(=O)CCC4C2C6)cc1 (stereo partly shown) [Compound 2d]', 7.47);

Would you kindly look at the next entry?
Annotate the compound O=C1CCC2C3Cc4ccc(O)c5c4[C@@]2(CCN3CCc2ccc(Cl)cc2)[C@H]1O5 (stereo partly shown) [Compound 2i] with its measured pEC50.
8.62

====

target: μ-opioid receptor (MOR) (Rattus norvegicus, UniProt P33535); construct: Frozen whole rat brains excluding cerebellum were thawed on ice; assay: Opioid receptor binding, μ sites ([3H]DAMGO), rat brain homogenate
Sequence (P33535 whole entry): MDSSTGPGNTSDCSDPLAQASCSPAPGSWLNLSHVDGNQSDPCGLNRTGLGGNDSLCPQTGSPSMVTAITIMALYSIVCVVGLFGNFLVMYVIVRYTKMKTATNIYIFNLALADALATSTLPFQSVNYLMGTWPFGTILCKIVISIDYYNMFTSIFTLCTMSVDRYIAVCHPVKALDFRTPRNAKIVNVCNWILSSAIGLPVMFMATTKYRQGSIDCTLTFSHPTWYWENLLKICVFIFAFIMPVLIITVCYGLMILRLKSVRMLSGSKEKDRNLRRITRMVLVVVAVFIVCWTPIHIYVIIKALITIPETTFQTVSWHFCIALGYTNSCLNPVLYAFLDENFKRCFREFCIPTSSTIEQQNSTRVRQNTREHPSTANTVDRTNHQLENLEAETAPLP
value-type: pKi
Scale note: pKi = -log10(concentration in M).

Annotate the compound O=C1CCC2C3Cc4ccc(O)c5c4[C@@]2(CCN3CCc2cccc(F)c2)[C@H]1O5 (stereo partly shown) with its measured pKi.
9.31

====

target: rat MOR (Rattus norvegicus); construct: expressed in transfected cells; host or cells: C6 rat glioma cells, stably transfected; membranes; experiment: Stimulation of [35S]GTPγS binding, C6 glioma cell membranes expressing MOR; assay type: biochemical; settings: antagonist activity assumed from high MOR affinity and lack of stimulation
Sequence (P33535 whole entry): as the sequence (P33535 whole entry) above
value-type: MOR activity type in the [35S]GTPγS assay

INSERT INTO assay_data (molecule, measurement) VALUES
  ('O=C1CCC2C3Cc4ccc(O)c5c4C2(CCN3CCc2cccc([N+](=O)[O-])c2)C1O5 (stereo not shown)', 'MOR antagonist'),
  ('COc1ccc(CCN2CC[C@]34c5c6ccc(O)c5O[C@H]3C(=O)CCC4C2C6)cc1 (stereo partly shown)', 'MOR antagonist'),
  ('N#CCCCN1CCC23c4c5ccc(O)c4OC2C(=O)CCC3C1C5 (stereo not shown)', 'MOR antagonist');

====

molecular target: human δ-receptor (OPRMD1) (Homo sapiens); construct: host or cells: HitHunter CHO-K1 cells; assay: cell-based; format: cell-based; conditions: CHO-K1, read-out: DOR cAMP % Efficacy
Sequence (P41143 whole entry): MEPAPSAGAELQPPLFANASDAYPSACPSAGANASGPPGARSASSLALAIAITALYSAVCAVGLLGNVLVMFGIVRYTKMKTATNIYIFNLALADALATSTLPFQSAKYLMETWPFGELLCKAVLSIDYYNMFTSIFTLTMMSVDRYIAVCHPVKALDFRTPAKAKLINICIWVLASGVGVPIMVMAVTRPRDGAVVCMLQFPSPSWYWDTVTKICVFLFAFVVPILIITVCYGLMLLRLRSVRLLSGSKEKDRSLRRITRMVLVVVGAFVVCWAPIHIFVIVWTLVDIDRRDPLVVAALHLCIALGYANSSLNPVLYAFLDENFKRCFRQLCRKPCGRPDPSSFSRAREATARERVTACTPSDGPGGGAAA
value-type: Emax
Express your answer as a number followed by its unit.

Annotate the compound O=C1CCC2C3Cc4ccc(O)c5c4[C@@]2(CCN3CC=Cc2ccccc2)[C@H]1O5 (stereo partly shown) with its measured Emax.
96.5%

====

biological target: human μ-opioid receptor β-arrestin-2 (Homo sapiens, UniProt P35372); construct: enzyme fragment for EFC (β-galactosidase ProLink fragment, by own knowledge of the PathHunter system); host or cells: PathHunter CHO cells; experiment: cell-based; conditions: read-out: MOR Mediated β-arrestin Recruitment (% Control, Emax DAMGO)
Lab note: anything with Emax below 40% is marked label 1; values at 40% or higher are marked label 0.

# count of solved cases: 6
INSERT INTO assay_data (compound, class) VALUES
  ('O=C1CCC2C3Cc4ccc(O)c5c4[C@@]2(CCN3CCc2ccc([N+](=O)[O-])cc2)[C@H]1O5 (stereo partly drawn)', 'label 1'),
  ('Cc1ccc(CCN2CC[C@]34c5c6ccc(O)c5O[C@H]3C(=O)CCC4C2C6)cc1 (stereo partly drawn)', 'label 0'),
  ('O=C1CCC2C3Cc4ccc(O)c5c4[C@@]2(CCN3CCc2ccc(F)cc2)[C@H]1O5 (stereo partly drawn)', 'label 0'),
  ('O=C1CCC2C3Cc4ccc(O)c5c4C2(CCN3CCc2ccccc2)C1O5 (stereo not drawn) [Compound S11, N-Phenethylnorhydromorphone]', 'label 0'),
  ('N#CCN1CC[C@]23c4c5ccc(O)c4O[C@H]2C(=O)CCC3C1C5 (stereo partly drawn)', 'label 1'),
  ('O=C1CCC2C3Cc4ccc(O)c5c4[C@@]2(CCN3CCc2c(Cl)cccc2Cl)[C@H]1O5 (stereo partly drawn)', 'label 1');

Please let me know if O=C1CCC2C3Cc4ccc(O)c5c4[C@@]2(CCN3CCc2ccccc2F)[C@H]1O5 (stereo partly drawn) shows Emax below 40%.
label 0

Please let me know if O=C(O)C(=O)O.O=C1CCC2[C@H]3Cc4ccc(O)c5c4[C@@]2(CCN3CCc2ccc(Br)cc2)[C@H]1O5 (stereo partly drawn) shows Emax below 40%.
label 0

Please let me know if O=C1CCC2C3Cc4ccc(O)c5c4C2(CCN3CCc2cccc([N+](=O)[O-])c2)C1O5 (stereo not drawn) shows Emax below 40%.
label 1

Please let me know if O=C1CCC2C3Cc4ccc(O)c5c4[C@@]2(CCN3CCc2ccc(C(F)(F)F)cc2)[C@H]1O5 (stereo partly drawn) shows Emax below 40%.
label 0

Please let me know if O=C1CCC2C3Cc4ccc(O)c5c4[C@@]2(CCN3CC=Cc2ccccc2)[C@H]1O5 (stereo partly drawn) shows Emax below 40%.
label 1

Please let me know if COc1ccc(CCN2CC[C@]34c5c6ccc(O)c5O[C@H]3C(=O)CCC4C2C6)cc1 (stereo partly drawn) shows Emax below 40%.
label 1

Please let me know if O=C1CCC2C3Cc4ccc(O)c5c4[C@@]2(CCN3CC2Cc3ccccc3C2)[C@H]1O5 (stereo partly drawn) shows Emax below 40%.
label 1

Please let me know if O=C1CCC2C3Cc4ccc(O)c5c4[C@@]2(CCN3CCc2ccc(Cl)cc2)[C@H]1O5 (stereo partly drawn) shows Emax below 40%.
label 0

====

biological target: human δ-receptor (OPRMD1) (Homo sapiens); construct: host or cells: HitHunter CHO-K1 cells; experiment: cell-based; format: cell-based; details: CHO-K1, read-out: DOR cAMP % Efficacy
Emax values, listed per item
Enter your answer as a number in %; do not include the unit.

Annotate the compound O=C1CCC2C3Cc4ccc(O)c5c4C2(CCN3CCc2cccc([N+](=O)[O-])c2)C1O5 (centres unmarked) with its measured Emax.
95.3

Annotate the compound O=C1CCC2C3Cc4ccc(O)c5c4[C@@]2(CCN3CCc2c(Cl)cccc2Cl)[C@H]1O5 (some centres unmarked) with its measured Emax.
95.8

Annotate the compound O=C1CCC2C3Cc4ccc(O)c5c4C2(CCN3CCc2ccccc2)C1O5 (centres unmarked) [Compound S11, N-Phenethylnorhydromorphone] with its measured Emax.
95.1
